biological target: GABA transporter 3 (Mus musculus) (UniProt P31649); experiment: Inhibition of [3H]GABA uptake at mouse GAT3 expressed in HEK cells assessed as remaining [3H]GABA uptake at 100 uM relative to control; format: cell-based; details: HEK293
value_kind: Activity

| molecule | value_kind | result |
| --- | --- | --- |
| COc1ccc(C(OCCNCc2c(F)cc(F)c(O)c2F)(c2ccc(OC)cc2)c2ccc(OC)cc2)cc1 | Activity | 56% |
| COc1ccc(C(OCCNCc2cc(F)c(O)c(F)c2)(c2ccc(OC)cc2)c2ccc(OC)cc2)cc1 | Activity | 51% |
| Oc1c(F)cc(CNCCC=C(c2ccccc2)c2ccccc2)cc1F | Activity | 66% |
| Cc1ccsc1C(=CCCN1CCC[C@@H](C(=O)O)C1)c1sccc1C [TIAGABINE] | Activity | 64% |

----------
target: Sodium- and chloride-dependent GABA transporter 1 (Mus musculus); assay: Inhibition of [3H]GABA uptake at mouse GAT1 expressed in HEK cells
pIC50: −log10 of the molar value.
value_kind: pIC50

| compound | recorded_number |
| --- | --- |
| Oc1ccccc1CNCCC=C(c1ccccc1)c1ccccc1 | 4.48 |
| COc1ccc(C(OCCNCc2ccc(OC)c(O)c2)(c2ccc(OC)cc2)c2ccc(OC)cc2)cc1 | 4.59 |
| COc1ccc(C(OCCNCc2cccc(O)c2)(c2ccc(OC)cc2)c2ccc(OC)cc2)cc1 | 4.36 |
| O=C(O)C1=CCCN(CCON=C(c2ccccc2)c2ccccc2)C1 | 6.83 |
| O=C(O)C1=CCCNC1 [GUVACINE] | 4.87 |
| COc1ccc(C(OCCNCc2ccccc2O)(c2ccc(OC)cc2)c2ccc(OC)cc2)cc1 | 4.57 |
| Oc1cccc(CNCCC(c2ccccc2)c2ccccc2)c1 | 4.06 |
| COc1ccc(CNCCC=C(c2ccccc2)c2ccccc2)cc1O | 4.73 |
| CCCCCCCCCCCCNCc1ccc(OC)c(O)c1 | 4.91 |
| O=C(O)C1CCCN(CCC=C(c2ccccc2)c2ccccc2)C1 (stereo unspecified) | 6.16 |
| CCCCCCCCCCCCNCc1cccc(O)c1 | 4.68 |

----------
Biological target: UniProt P31649
Sequence (P31649 whole entry): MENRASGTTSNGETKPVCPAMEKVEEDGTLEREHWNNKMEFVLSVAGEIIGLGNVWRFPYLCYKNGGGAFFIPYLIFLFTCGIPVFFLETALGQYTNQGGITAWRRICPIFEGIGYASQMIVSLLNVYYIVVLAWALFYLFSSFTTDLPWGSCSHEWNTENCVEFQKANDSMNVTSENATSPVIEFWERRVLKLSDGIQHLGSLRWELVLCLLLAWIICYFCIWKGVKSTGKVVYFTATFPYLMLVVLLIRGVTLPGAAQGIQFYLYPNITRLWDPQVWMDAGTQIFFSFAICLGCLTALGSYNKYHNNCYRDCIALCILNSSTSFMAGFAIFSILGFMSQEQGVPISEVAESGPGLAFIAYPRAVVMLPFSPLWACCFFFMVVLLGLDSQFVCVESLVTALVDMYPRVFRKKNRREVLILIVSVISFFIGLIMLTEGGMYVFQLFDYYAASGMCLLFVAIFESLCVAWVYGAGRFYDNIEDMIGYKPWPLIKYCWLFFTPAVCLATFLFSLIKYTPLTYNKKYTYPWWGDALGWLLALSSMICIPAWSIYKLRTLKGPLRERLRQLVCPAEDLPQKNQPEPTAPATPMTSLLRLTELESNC
Experiment: Inhibition of [3H]GABA uptake at mouse GAT3 expressed in HEK cells
Assay type: cell-based, HEK293
Conditions: read-out: pIC50 (converted)
Each record here notes measured log10 of IC50.
value_kind: log10 of IC50 (log10 of the value in µM)

| smiles_str | value_kind | recorded_number |
| --- | --- | --- |
| Oc1cccc(CNCCC=C(c2ccccc2)c2ccccc2)c1 | log10 of IC50 | 0.90 |
| Oc1ccccc1CNCCC(c1ccccc1)c1ccccc1 | log10 of IC50 | 1.39 |
| CCCCCCCCCCCCNCc1ccc(OC)c(O)c1 | log10 of IC50 | 0.43 |
| O=C(O)C1=CCCNC1 | log10 of IC50 | 1.41 |
| Oc1cccc(CNCCC(c2ccccc2)c2ccccc2)c1 | log10 of IC50 | 1.58 |
| O=C(O)C1=CCCN(CCON=C(c2ccccc2)c2ccccc2)C1 | log10 of IC50 | 2.38 |

Where do the numbers come from? From ChEMBL document CHEMBL1140995.
